// provenance: paper PMC4780440

- assay_target: hMC4R (Homo sapiens, UniProt P32245)
- Sequence (P32245 whole entry): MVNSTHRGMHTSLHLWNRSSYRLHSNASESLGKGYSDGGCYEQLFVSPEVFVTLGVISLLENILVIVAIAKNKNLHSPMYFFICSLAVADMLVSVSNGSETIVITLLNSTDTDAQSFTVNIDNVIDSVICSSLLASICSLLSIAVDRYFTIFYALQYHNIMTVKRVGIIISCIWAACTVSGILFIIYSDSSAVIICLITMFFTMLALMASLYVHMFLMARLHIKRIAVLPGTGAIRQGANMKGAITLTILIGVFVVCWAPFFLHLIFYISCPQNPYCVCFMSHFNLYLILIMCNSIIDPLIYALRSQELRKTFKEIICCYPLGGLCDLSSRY
- run_description: Competitive binding assay against TRF probe 19, six-well plate protocol
- settings: compared to the monovalent MSH(4) construct with the same scaffold core
observation_type: Relative Potency
Give bare numbers.

Entry under review: N=C(N)NCCC[C@H](NC(=O)[C@@H](Cc1ccccc1)NC(=O)[C@H](Cc1c[nH]cn1)NC(=O)CCCCCn1cc(COc2cc(OCc3cn(CCCCCC(=O)N[C@@H](CO)C(N)=O)nn3)cc(OCc3cn(CCCCCC(=O)N[C@@H](CO)C(N)=O)nn3)c2)nn1)C(=O)N[C@@H](Cc1c[nH]c2ccccc12)C(N)=O [Compound 14a] . Reported Relative Potency? 1
